Assay: small-molecule microarray binders of probe aShh, primary screen, biochemical, biotinylated probe, 635/667 nm fluorescence (AID 1114);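 note: probe is biotin-labelled aShh protein from a stem cell growth factor screen; measures binding of labelled protein to compounds printed on the slide; score merges feature fluorescence at 667 nm with signal-to-noise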
Conditions: higher = more signal
quantity measured: composite z-score
Form field (numeric): enter value without unit.

Example entries begin here.
{"compound": "COc1ccc([Si](C)(C)[C@H]2[C@H](CCO)O[C@@]3(C(=O)N(Cc4cccc(NC(=O)[C@H](C)O)c4)c4ccccc43)[C@@H]2C)cc1", "result value": 0.0144}
{"compound": "COC(=O)C1=CCC(c2cccc(Cl)c2)O1 (stereo not drawn)", "result value": -0.291}
{"compound": "COCCNC(=O)OCC1CCCC2(CC(OC(=O)NCCc3ccc(F)cc3)CC(CCC(=O)N[C@@H](C)C(=O)OC)O2)O1 (stereo partly drawn)", "result value": -0.0035}
{"compound": "CCN1C(=O)[C@H]2[C@H]3[C@H](O)[C@H](O)CC(=NOC[C@@H](C)[C@H](OCc4ccccc4)C(C)C)[C@@H]3CC[C@H]2C1=O", "result value": -0.262}
{"compound": "CCOC(=O)C1=CC[C@H]2C(=O)N(CC)C(=O)[C@@H]12", "result value": 0.329}

What the record says about COC(=O)[C@H](C)NC(=O)CCC1CC(OC(=O)NCc2cccc3ccccc23)CC2(CCCC(COC(=O)NCCc3ccc(Cl)cc3)O2)O1 (stereo partly drawn) : composite z-score is -0.138

Entry O=C1C[C@@H](O)[C@@H](O)[C@@H]2[C@@H]3C(=O)N(c4cccc(Oc5ccccc5)c4)C(=O)[C@@H]3CC[C@@H]12 ; composite z-score = -0.206

The reported composite z-score of the compound COC(=O)[C@@]1(Cc2ccc(OC)cc2)[C@H]2c3cc(C(=O)N4CCCC4)n(Cc4cc(F)c(F)c(F)c4)c3C[C@H]2CN1C(=O)c1ccccc1 was 2.22

* * *

Target: Dihydroorotate dehydrogenase (quinone), mitochondrial (Plasmodium falciparum (isolate 3D7))
Test: PfDHODH enzyme inhibitors, primary screen, biochemical, C-terminal His tag, absorbance 600 nm (AID 1175);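 note: recombinant parasite enzyme with a five histidine tag at its C terminus; test concentration not given here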
Conditions: DCIP absorbance 600 nm, called active from +8 up or from −8 down
The source made the active and inactive calls.
Give one outcome, nothing more. List: 1 (active), 0 (inactive)

As a guide, the following entries are already answered.
{"compound": "COCCOC(=O)N1C(=O)[C@@]2(c3cc(C#Cc4ccc(OC)cc4)ccc31)[C@H](C(=O)N1CCN(c3ncccn3)CC1)[C@H]1C(=O)O[C@H](c3ccccc3)[C@H](c3ccccc3)N1[C@@H]2c1ccc(OCCO)cc1", "group": 0}
{"compound": "CO[C@H]1COC(=O)[C@@H]2CCCN2C(=O)CC=C[C@@H](C)[C@H](OC)COC(=O)CC=C[C@@H]1C", "group": 0}
{"compound": "C[C@@H]1C=CCC(=O)OC[C@H](C)C(=O)N[C@@H](C)C(=O)OC1", "group": 0}
{"compound": "C[C@H]1Cc2c(-c3ccccc3)nc3c(c2CO1)CN(CCOc1ccccc1)CC3", "group": 0}
{"compound": "CO[C@@H]1COC(=O)CC=C[C@@H](C)COC(=O)[C@H](COCc2ccccc2)NC(=O)CC=C[C@H]1C", "group": 0}
{"compound": "CC(CCN1CCc2nc(-c3ccccc3)c(-c3ccccc3)cc2C1)=NOC[C@@H](C)[C@H](OCc1ccccc1)C(C)C", "group": 0}
{"compound": "CC(C)[C@@H](OCc1ccccc1)[C@H](C)C=NO[C@H](C)c1cn([C@H](CO)Cc2ccccc2)nn1", "group": 0}
{"compound": "CC(=O)O[C@H]1C2=C(C(=O)[C@@H]3O[C@@H]31)[C@H]1C(C)O[C@@H]2[C@@]23C(=O)[C@@H]4O[C@@H]4[C@@H](O)C2=CO[C@H](C)[C@@H]13 (some centres not stated)", "group": 0}
{"compound": "COc1ccc(O[C@H]2C=C[C@@H](c3ccccc3)O[C@@H]2CON=C[C@@H](C)[C@H](OCc2ccccc2)C(C)C)cc1", "group": 0}
{"compound": "CCOC(=O)CCN1C(=O)[C@H]2[C@H]3[C@H](O)[C@H](O)CC(=NNC(=O)OCc4ccc(OC)cc4)[C@@H]3CC[C@H]2C1=O", "group": 0}

Write down the call the test reported for this compound. Item: CCCNC(=O)[C@@H]1c2ccccc2C(=O)N(Cc2ccccc2Cl)[C@H]1c1ccc(CO)cc1
0

Identify the outcome logged in this assay for the compound shown: CCN1C(=O)[C@H]2[C@H]3[C@H](O)[C@H](O)CC(=NO[C@@H]4O[C@H](CO)[C@@H](O)[C@H](O)[C@H]4O)[C@@H]3CC[C@H]2C1=O
0

Please indicate how the test categorized C=CCOC(=O)[C@H]1[C@@H]2C(=O)O[C@@H](c3ccccc3)[C@@H](c3ccccc3)N2[C@@H](c2ccc(OCCOC(=O)[C@H]3C[C@H]4C(=O)N5CCC[C@H]5C(=O)N4[C@H]3c3cccc(OCCO)c3)cc2)[C@]12C(=O)Nc1ccc(I)cc12 .
1

Each compound tested received a call. Report the one for CC(=O)OC[C@H]1O[C@@H](ON=C[C@@H](C)[C@H](OCc2ccccc2)C(C)C)[C@H](OC(C)=O)[C@@H](OC(C)=O)[C@@H]1OC(C)=O .
0

Which outcome was assigned to COc1ccc(-c2nc3c(c4c2C[C@H](C)OC4)CN(CCC(C)C)CC3)cc1 in this test?
0

What outcome does the record of this test show for CCOC(=O)[C@H](Cc1ccccc1)NC(=O)CCC1CC(OC(=O)NCc2ccc3c(c2)OCO3)CC2(CCCC(COC(=O)NCc3cccc(C(F)(F)F)c3)O2)O1 (some centres not stated) ?
0

Lab log entry: C=COC[C@H]1CN2[C@@H](CC[C@@H](C)[C@@H]2c2ccc(Br)cc2)C(=O)O1 — outcome as called in the assay?
0

# fetch the recorded call for CCN(CC)c1ccc(N2CC=CC34O[C@@H]5/C=C\CCC(C)OC(=O)C5[C@H]3C(=O)N(CCCO)[C@@H]4C2=O)cc1 (some centres not stated) here
0
